- Test system: CCRF-CEM leukemia
- Test details: NCI tumour cell line growth inhibition, 384-well format
Entries annotated with measured TGI
Experimental endpoint: TGI (nM)

1. Nc1ccc(/C=C/C(=O)NCc2cc3cc(-c4ccc(C(=O)N5CCC(F)(F)CC5)cc4)cc(-c4ccc(F)cc4)c3o2)cn1	37.2
2. Cn1cc(C2=C(c3cn(C4CCN(Cc5ccccn5)CC4)c4ccccc34)C(=O)NC2=O)c2ccccc21	1240
3. COc1ccc(CN2C3CC2CN(c2ccc(-c4cc(OCC(C)(C)O)cn5ncc(C#N)c45)cn2)C3)cn1	3760

* * *

- Tested on: UACC-257 melanoma
- Test details: NCI tumour cell line growth inhibition, 384-well format; in the data active = GI50 below about 0.43 µM; inactive = the rest
Outcomes: t = active, f = inactive

1. CCc1c2c(nc3ccc(OC(=O)N4CCC(N5CCCCC5)CC4)cc13)-c1cc3c(c(=O)n1C2)COC(=O)[C@]3(O)CC	f
2. CCNC(=O)c1noc(-c2cc(C(C)C)c(O)cc2O)c1-c1ccc(CN2CCOCC2)cc1	t
3. Cn1cc(C2=C(c3cn(C4CCN(Cc5ccccn5)CC4)c4ccccc34)C(=O)NC2=O)c2ccccc21	f
4. COc1ccc(CN2C3CC2CN(c2ccc(-c4cc(OCC(C)(C)O)cn5ncc(C#N)c45)cn2)C3)cn1	f
5. C=C1C[C@@H]2CC[C@@]34C[C@H]5O[C@H]6[C@@H](O3)[C@H]3O[C@H](CC[C@@H]3O[C@H]6[C@@H]5O4)CC(=O)C[C@@H]3[C@@H](OC)[C@@H](C[C@H](O)CN)O[C@H]3C[C@H]3O[C@@H](CC[C@@H]1O2)C[C@@H](C)C3=C	t

* * *

Entries annotated with measured TGI
- Test system: OVCAR-8 ovarian
- Test details: NCI tumour cell line growth inhibition, 384-well format
Experimental endpoint: TGI (nM)

1. Nc1ccc(/C=C/C(=O)NCc2cc3cc(-c4ccc(C(=O)N5CCC(F)(F)CC5)cc4)cc(-c4ccc(F)cc4)c3o2)cn1	32.8
2. C=C1C[C@@H]2CC[C@@]34C[C@H]5O[C@H]6[C@@H](O3)[C@H]3O[C@H](CC[C@@H]3O[C@H]6[C@@H]5O4)CC(=O)C[C@@H]3[C@@H](OC)[C@@H](C[C@H](O)CN)O[C@H]3C[C@H]3O[C@@H](CC[C@@H]1O2)C[C@@H](C)C3=C	27.6
3. CCOC(=O)CCC(NC(=O)C(Cc1ccc(N(CCCl)CCCl)cc1)NC=O)C(=O)OCC (centres undefined)	17000
